assay: PhoP regulon inhibitors, Salmonella typhi PhoP promoter GFP reporter, confirmatory (AID 1850); details: fluorescence, 4 h, at 50 µM, active compounds read high;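 note: 0% = induced wells with vehicle and 100% = uninduced wells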
Out of some 310,000 compounds screened, about 1,000 (0.32%) were called active. Not all results are given here. Measured potencies and affinities stand elsewhere.
REPORTED_PROPERTY: inhibition (%)
Give just the numeric value; % need not be written.

// worked examples, inhibition included
• CCCCn1c(N)c(N(CCC(C)C)C(=O)CCN2C(=O)C3CC=CCC3C2=O)c(=O)[nH]c1=O (stereo not drawn) = 0.9
• CCC[C@@H](CN[C@@H](CNC)C(C)C)NCCCCc1ccccc1 = 16.7
• COc1ccc(Cl)cc1C(=O)NCCN(C)C = -0.53

Query block: Reported inhibition for O=c1c2[nH]c3ccccc3c2ncn1CCC1=CCCCC1 : what is it?
Result block: -7.17

Query block: Continue with CN1N=C(C(C)(C)C)CC1=O
Result block: -12.7

Query block: Continue with CC(=O)Nc1ccc(/C=N/N2C(=O)NC(C)(c3ccc(OC(F)F)cc3)C2=O)cc1 (stereo not drawn)
Result block: -10

Query block: Continue with CCCCN(C)CCNC(=O)c1cc2cc3ccc(OC)cc3nc2o1
Result block: 7.2

Query block: Continue with O=C(CC12CC3CC(CC(C3)C1)C2)NC(Cc1ccccc1)C(=O)O (stereo not drawn)
Result block: -9.42

Query block: Continue with COCCNc1ncnc2c1[nH]c1ccccc12
Result block: 8.5

----------
The following compounds are listed with their measured inhibition values.
assay: PhoP regulon inhibitors, Salmonella typhi PhoP promoter GFP reporter, confirmatory (AID 1850); settings: fluorescence, 4 h, at 50 µM, active compounds read high;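 note: 0% = induced wells with vehicle and 100% = uninduced wells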
Screen size: about 310,000 compounds; about 1,000 (0.32%) were called active. These entries were drawn from the full list. Results with a measured potency or affinity are listed apart.
Give just the numeric value; % need not be written.

// worked examples, inhibition included
* Cc1ccc(NS(=O)(=O)c2ccc3c(c2)NC(=O)CCS3)c(Br)c1 | 1.1
* CCCC(=O)Nc1ccc(C(=O)NNC(=O)COc2ccc(Br)c(C)c2)cc1 | -2.62
* CCc1ccc(N2CC(C(=O)N/N=C/c3cccc([N+](=O)[O-])c3)CC2=O)cc1 (stereo unspecified) | -13.7

Query block: Reported inhibition for CC(C)N(Cc1nc(-c2ccccc2)no1)C(=O)c1ccc2c(c1)OCO2 : what is it?
Result block: 1.2

Query block: Continue with Cc1ccc(C(=O)CCS(=O)(=O)c2ccc(Cl)cc2)cc1
Result block: 2.23

Query block: Continue with Cc1ccc(C(=O)CCS(=O)(=O)c2ccc(Br)cc2)cc1
Result block: -6.22

Query block: Continue with C/C(=N\NC(=O)C(O)c1ccccc1)c1ccc(Cl)s1 (stereo unspecified)
Result block: -5.86

Query block: Continue with Cc1ccc(CNC(=O)CSCc2ccccc2F)cc1
Result block: 3.95

Query block: Continue with COc1ccc(N2CC(C(=O)N/N=C/c3ccc([N+](=O)[O-])cc3)CC2=O)cc1 (stereo unspecified)
Result block: 0.01

Query block: Continue with CN(C)C(=O)C12CCC(C)(C(=O)C1Br)C2(C)C (stereo unspecified)
Result block: 7.02

Query block: Continue with COc1ccccc1/C=N/NC(=O)c1cccc(NC(=O)c2ccccc2C)c1
Result block: 8.56
